Data provenance: PubChem BioAssay AID248

Test system: L1210 leukemia ip in BDF1 mice, survival T/C
ASSAY_TEXT: NCI In Vivo Anticancer Drug Screen. Data for tumor model L1210 Leukemia (intraperitoneal) in B6D2F1 (BDF1) mice
STUDY_CONDITIONS: endpoint: mean survival time; dose: 25.0 mg/kg/injection; schedule: Q04DX003 (ip); vehicle: saline; higher = longer survival
Inconclusive results and toxic doses are left out.
METRIC: T/C

c1ccc2c(c1)CC1(Cc3ccccc3-2)C[N+]12CCCCC2    98 % of control
O=C(OCC1CCN2CCCC12)c1ccccc1 (configuration not stated)    110 % of control
CC(C)=CCC(OC(=O)C=C(C)C)C1=CC(=O)c2c(O)ccc(O)c2C1=O (configuration not stated)    104 % of control
C=CCN(CC=C)CCN1CCN(CCCN2c3ccccc3Sc3ccc(C(F)(F)F)cc32)CC1    112 % of control

Continue with the next molecule.
Input: Please indicate T/C recorded for `CCCCCCCCCCCCCCCCCC1=NCCN1CCN`
Output: 97 % of control

====

Tested on: L1210 leukemia ip in BDF1 mice, survival T/C
ASSAY_TEXT: NCI In Vivo Anticancer Drug Screen. Data for tumor model L1210 Leukemia (intraperitoneal) in B6D2F1 (BDF1) mice
STUDY_CONDITIONS: endpoint: mean survival time; dose: 100.0 mg/kg/injection; schedule: Q01DX001 (ip); vehicle: saline with Tween-80; higher = longer survival
Procedure: The antitumor activity of compounds was measured in mice bearing transplantable tumors. Survival or tumor size were measured and the results are expressed as the measurement made in the treated group (T) divided by the measurement made in the vehicle treated control group (C). The tumor model used in this assay is L1210 Leukemia (intraperitoneal) in B6D2F1 (BDF1) mice
Inconclusive results and toxic doses are left out.
METRIC: T/C

Observe how each entry below is paired with its result.
Cc1ccc(Cl)cc1NC(=O)Nc1cc(Cl)c(Cl)cc1C    100 % of control
O=C(COc1ccccc1)NC(=S)Nc1ccc(C(=O)O)cc1    97 % of control
O=C(NCCCl)Nc1cccc(Cl)c1    86 % of control
CCCCCCCC/C=C\CCCCCCCC(=O)OCC#CCOC(=O)CCCCCCC/C=C/CCCCCCCC    94 % of control
Nc1ncnc(N)c1NC(=O)c1cc(Cl)c(OCc2ccccc2)c(Cl)c1    91 % of control

Continue with the next compound.
Input: Please indicate T/C recorded for `Cc1cccc(Nc2c3ccccc3nc3ccccc23)c1`
Output: 104 % of control

====

System: L1210 leukemia ip in BDF1 mice, survival T/C
ASSAY_TEXT: NCI In Vivo Anticancer Drug Screen. Data for tumor model L1210 Leukemia (intraperitoneal) in B6D2F1 (BDF1) mice
STUDY_CONDITIONS: endpoint: mean survival time; dose: 12.5 mg/kg/injection; schedule: Q01DX001 (ip); vehicle: Klucel (hydroxypropylcellulose) (HPC); higher = longer survival
Inconclusive results and toxic doses are left out.
METRIC: T/C

Observe how each entry below is paired with its result.
CCCCc1c(C)nc(N)nc1N    111 % of control
Nc1nc2c(ncn2-c2cccc(NC(=O)Nc3cc(S(=O)(=O)F)ccc3Cl)c2)c(=O)[nH]1    87 % of control
O=C(C=P(c1ccccc1)(c1ccccc1)c1ccccc1)CCl    98 % of control
CC1(C)Cc2cccc(OC(=O)NO)c2O1    100 % of control

Continue with the next compound.
Input: Fetch value of T/C on L1210 leukemia ip in BDF1 mice, survival T/C for `Nc1ncnc(N)c1NC(=O)Cc1cccc([N+](=O)[O-])c1` .
Output: 101 % of control
